# Test system: U2OS
# protocol.text: Antiproliferative activity against human U2OS cells
outcome.measure: IC50

# input Consider the compound O=C1COc2cc(C(=O)N(Cc3ccc(C(=O)Nc4ccncn4)cc3)C3CC3)ccc2N1 and give its measured IC50.
# output 1.2 µM

====

# tgt: Histone-lysine N-methyltransferase, H3 lysine-36 specific (Homo sapiens)
# Sequence (Q96L73 whole entry): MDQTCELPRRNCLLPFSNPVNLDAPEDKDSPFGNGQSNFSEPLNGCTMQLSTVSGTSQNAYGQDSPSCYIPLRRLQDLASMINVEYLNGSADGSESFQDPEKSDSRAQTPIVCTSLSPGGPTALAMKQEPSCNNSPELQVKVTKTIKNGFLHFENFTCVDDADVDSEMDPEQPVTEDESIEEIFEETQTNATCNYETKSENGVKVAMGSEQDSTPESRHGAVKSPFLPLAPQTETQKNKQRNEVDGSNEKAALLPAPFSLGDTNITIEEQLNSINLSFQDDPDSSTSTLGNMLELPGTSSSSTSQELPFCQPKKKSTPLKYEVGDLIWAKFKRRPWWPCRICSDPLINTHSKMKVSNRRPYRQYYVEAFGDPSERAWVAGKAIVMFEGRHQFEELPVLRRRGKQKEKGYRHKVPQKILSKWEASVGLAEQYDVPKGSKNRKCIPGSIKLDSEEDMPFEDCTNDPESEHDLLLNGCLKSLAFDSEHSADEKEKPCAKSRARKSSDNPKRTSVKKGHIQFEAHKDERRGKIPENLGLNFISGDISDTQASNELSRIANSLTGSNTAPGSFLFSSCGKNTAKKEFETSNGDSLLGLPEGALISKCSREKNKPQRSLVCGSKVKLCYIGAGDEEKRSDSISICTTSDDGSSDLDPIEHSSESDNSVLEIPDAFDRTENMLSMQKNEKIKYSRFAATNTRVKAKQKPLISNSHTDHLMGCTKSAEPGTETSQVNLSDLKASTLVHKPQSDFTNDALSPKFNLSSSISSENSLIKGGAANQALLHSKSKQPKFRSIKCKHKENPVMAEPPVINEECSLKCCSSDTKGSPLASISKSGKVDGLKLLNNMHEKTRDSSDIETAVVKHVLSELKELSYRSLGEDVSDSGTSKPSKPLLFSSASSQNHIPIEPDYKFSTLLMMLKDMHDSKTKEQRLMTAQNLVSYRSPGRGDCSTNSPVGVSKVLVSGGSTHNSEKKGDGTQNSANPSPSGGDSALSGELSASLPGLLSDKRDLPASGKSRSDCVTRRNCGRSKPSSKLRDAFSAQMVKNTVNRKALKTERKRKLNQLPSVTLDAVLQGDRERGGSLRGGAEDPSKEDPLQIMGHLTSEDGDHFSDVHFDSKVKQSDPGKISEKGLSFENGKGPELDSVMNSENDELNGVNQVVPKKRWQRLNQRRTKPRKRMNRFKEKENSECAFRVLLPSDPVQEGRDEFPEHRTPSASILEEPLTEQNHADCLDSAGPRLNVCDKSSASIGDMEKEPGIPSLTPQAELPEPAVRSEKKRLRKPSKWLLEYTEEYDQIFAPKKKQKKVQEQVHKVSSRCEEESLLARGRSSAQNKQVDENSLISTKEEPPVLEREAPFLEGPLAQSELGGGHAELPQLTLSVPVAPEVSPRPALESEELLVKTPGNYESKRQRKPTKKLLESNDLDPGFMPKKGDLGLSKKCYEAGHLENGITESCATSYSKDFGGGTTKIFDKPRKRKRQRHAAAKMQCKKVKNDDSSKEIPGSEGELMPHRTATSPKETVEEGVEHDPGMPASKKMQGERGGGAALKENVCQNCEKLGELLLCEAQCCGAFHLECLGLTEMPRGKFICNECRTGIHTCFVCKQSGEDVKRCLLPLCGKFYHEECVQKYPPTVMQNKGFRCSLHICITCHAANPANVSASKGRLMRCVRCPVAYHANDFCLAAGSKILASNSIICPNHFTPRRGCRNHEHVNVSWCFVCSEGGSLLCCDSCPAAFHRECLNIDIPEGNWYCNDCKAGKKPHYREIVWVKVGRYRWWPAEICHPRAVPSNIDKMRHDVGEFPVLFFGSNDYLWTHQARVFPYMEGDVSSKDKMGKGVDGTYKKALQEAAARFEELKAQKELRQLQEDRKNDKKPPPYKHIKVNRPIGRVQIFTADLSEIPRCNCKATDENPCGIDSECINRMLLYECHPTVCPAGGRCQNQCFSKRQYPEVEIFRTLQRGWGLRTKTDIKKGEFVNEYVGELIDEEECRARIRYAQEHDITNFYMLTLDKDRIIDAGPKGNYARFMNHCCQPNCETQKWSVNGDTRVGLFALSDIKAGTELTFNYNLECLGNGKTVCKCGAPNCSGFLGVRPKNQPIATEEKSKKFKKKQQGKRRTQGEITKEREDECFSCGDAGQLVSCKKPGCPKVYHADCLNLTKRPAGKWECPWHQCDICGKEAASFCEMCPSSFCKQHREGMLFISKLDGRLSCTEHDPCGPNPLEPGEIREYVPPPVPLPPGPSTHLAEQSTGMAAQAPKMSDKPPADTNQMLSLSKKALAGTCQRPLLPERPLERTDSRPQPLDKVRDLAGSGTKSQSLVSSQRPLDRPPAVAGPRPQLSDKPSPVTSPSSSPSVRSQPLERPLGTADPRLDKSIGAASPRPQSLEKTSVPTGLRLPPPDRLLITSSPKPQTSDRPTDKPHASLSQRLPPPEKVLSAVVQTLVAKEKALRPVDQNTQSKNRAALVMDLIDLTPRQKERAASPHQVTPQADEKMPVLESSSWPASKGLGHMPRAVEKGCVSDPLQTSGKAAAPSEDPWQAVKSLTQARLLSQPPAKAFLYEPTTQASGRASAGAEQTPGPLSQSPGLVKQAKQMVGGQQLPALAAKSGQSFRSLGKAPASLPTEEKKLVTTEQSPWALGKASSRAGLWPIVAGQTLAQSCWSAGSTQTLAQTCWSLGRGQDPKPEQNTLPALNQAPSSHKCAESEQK
I'd appreciate it if you could supply IC50 values for the items below.
Give bare numbers, in µM.

Use the examples below as a reference point.
INSERT INTO results (compound, outcome_measure, assay_result) VALUES
  ('C[C@H]1COC2=C1C(=O)C(=O)c1c2ccc2c1CCCC2(C)C', 'IC50', 3.5),
  ('CN1C[C@H](C(=O)N[C@]2(C)C[C@@]3(O)C4CCCN4C(=O)[C@H](Cc4ccccc4)N3C2=O)C=C2c3cccc4[nH]cc(c34)C[C@H]21 (stereo partly drawn)', 'IC50', 5.9),
  ('O=C1C=CC(=O)c2ccccc21', 'IC50', 2);

Quick one: give me IC50 for each item below, same order please.
1. Cc1cc(/C=C/c2ccc3cc(N(C)C)ccc3[n+]2C)c(C)n1-c1ccccc1
2. CC(C)C[C@H]1C(=O)N2CCCC2[C@]2(O)O[C@](NC(=O)[C@@H]3C=C4c5cccc6[nH]cc(c56)CC4N(C)C3)(C(C)C)C(=O)N12 (stereo partly drawn)
3. CC1=CC(=O)c2c(O)cccc2C1=O
4. O=C(O)c1ccccc1-c1c2cc(I)c(=O)c(I)c-2oc2c(I)c(O)c(I)cc12
5. Cc1coc2c1C(=O)C(=O)c1c-2ccc2c(C)cccc12

# output
1. 2.6
2. 4.9
3. 5.7
4. 0.34
5. 3.1

Origin of values: ChEMBL document CHEMBL6074654
